# Test system: P388 leukemia ip, CD2F1 mice, survival T/C
# METHOD: NCI In Vivo Anticancer Drug Screen. Data for tumor model P388 Leukemia (intraperitoneal) in CD2F1 (CDF1) mice
# ASSAY_CONTEXT: endpoint: median survival time; dose: 100.0 mg/kg/injection; schedule: Q01DX009 (ip); vehicle: water; higher = longer survival
Inconclusive results and toxic doses are left out.
For each entry below, report its T/C value.

Param item: O=NN(CCSCCO)C(=O)NC1CCCCC1 ; param system: P388 leukemia ip, CD2F1 mice, survival T/C; output T/C: 110 % of control

Param item: O=S(=O)(O)O ; param system: P388 leukemia ip, CD2F1 mice, survival T/C; output T/C: 86 % of control

Param item: COC(=O)/C=C/CNC(C)C ; param system: P388 leukemia ip, CD2F1 mice, survival T/C; output T/C: 108 % of control

Param item: O=c1ccn(C2OC(CO)C(O)C2O)c(=O)[nH]1 (centres undefined) ; param system: P388 leukemia ip, CD2F1 mice, survival T/C; output T/C: 106 % of control

* * *

# System: P388 leukemia ip, CD2F1 mice, survival T/C
# METHOD: NCI In Vivo Anticancer Drug Screen. Data for tumor model P388 Leukemia (intraperitoneal) in CD2F1 (CDF1) mice
# ASSAY_CONTEXT: endpoint: median survival time; dose: 60.0 mg/kg/injection; schedule: Q01DX005 (ip); vehicle: saline with Tween-80; higher = longer survival
Inconclusive results and toxic doses are left out.
ENDPOINT: T/C

The molecule listed as CC(C)=Cc1cc(-c2cc(C=C(C)C)[nH]n2)n[nH]1 has a reported T/C of 97 % of control

The molecule listed as O=c1sc2ccccc2n2cccc12 has a reported T/C of 92 % of control

The molecule listed as Cc1cc2c(cc1C)C(=O)CCC(=O)N2 has a reported T/C of 102 % of control

The molecule listed as O=C(C[P+](c1ccccc1)(c1ccccc1)c1ccccc1)c1ccccc1 has a reported T/C of 105 % of control

The molecule listed as CCc1cccc(C(C)C)c1NC1=C([n+]2ccc(C)cc2)C(=O)c2ccccc2C1=O has a reported T/C of 117 % of control

The molecule listed as COC(=O)C(=O)c1c(C(=O)OC)nc2nnc(N)n2c1-c1ccc(O)c(OC)c1 has a reported T/C of 92 % of control

The molecule listed as C[C@]12CC[C@H]([C@@]3(C)CC[C@H]4CC[C@]43O)[C@@H](CO)[C@@H]1CC[C@@H]2O has a reported T/C of 104 % of control

The molecule listed as COC1=Cc2nc3ccccc3nc2OC1(C)C has a reported T/C of 110 % of control

The molecule listed as c1ccc(-n2ncc3ccc4cccn4c32)cc1 has a reported T/C of 108 % of control

The molecule listed as CCCCCCCCCCCCCCCc1nc(SCC(=O)OC)n[nH]1 has a reported T/C of 99 % of control

The molecule listed as CCOC(=O)Cc1cc(=O)oc2c(CN3CCN(c4ccc(C)cc4)CC3)c(O)ccc12 has a reported T/C of 100 % of control

* * *

# System: P388 leukemia ip, CD2F1 mice, survival T/C
# METHOD: NCI In Vivo Anticancer Drug Screen. Data for tumor model P388 Leukemia (intraperitoneal) in CD2F1 (CDF1) mice
# ASSAY_CONTEXT: endpoint: median survival time; dose: 200.0 mg/kg/injection; schedule: Q01DX009 (ip); vehicle: Klucel (hydroxypropylcellulose) (HPC); higher = longer survival
# Experimental: The antitumor activity of compounds was measured in mice bearing transplantable tumors. Survival or tumor size were measured and the results are expressed as the measurement made in the treated group (T) divided by the measurement made in the vehicle treated control group (C). The tumor model used in this assay is P388 Leukemia (intraperitoneal) in CD2F1 (CDF1) mice
Toxic doses and inconclusive results are not listed.
ENDPOINT: T/C

Param item: Fc1ccc(NC(=S)Nc2ccccc2C(F)(F)F)cc1 ; param system: P388 leukemia ip, CD2F1 mice, survival T/C; output T/C: 100 % of control

Param item: COc1ccc(C(O)(c2ccccc2)c2ccccc2)c(OC)c1 ; param system: P388 leukemia ip, CD2F1 mice, survival T/C; output T/C: 95 % of control

Param item: O=C(Nc1ccccc1)c1cnc[nH]1 ; param system: P388 leukemia ip, CD2F1 mice, survival T/C; output T/C: 96 % of control

Param item: O=c1ccc(=O)n(CCc2ccccn2)[nH]1 ; param system: P388 leukemia ip, CD2F1 mice, survival T/C; output T/C: 108 % of control

* * *

# Test system: P388 leukemia ip, CD2F1 mice, survival T/C
# METHOD: NCI In Vivo Anticancer Drug Screen. Data for tumor model P388 Leukemia (intraperitoneal) in CD2F1 (CDF1) mice
# ASSAY_CONTEXT: endpoint: median survival time; dose: 100.0 mg/kg/injection; schedule: Q01DX009 (ip); vehicle: Klucel (hydroxypropylcellulose) (HPC); higher = longer survival
Toxic doses and inconclusive results are not listed.
ENDPOINT: T/C

The compound listed as Brc1ccc(Oc2ccc(Br)cc2)cc1 has a reported T/C of 98 % of control

The compound listed as CCOC(=O)Nc1c(C)cc(C)cc1C has a reported T/C of 94 % of control

The compound listed as CCCCCCCC/C=C\CCCCCCCC(=O)OCCSCCOC(C)=O has a reported T/C of 101 % of control

The compound listed as c1cc2c3c(cccc3c1)C(C1Cc3cccc4cccc1c34)C2 (configuration not stated) has a reported T/C of 100 % of control

The compound listed as Fc1ccc(NC(=S)Nc2ccccc2C(F)(F)F)cc1 has a reported T/C of 92 % of control

The compound listed as CCCCCCCCC(=O)Nc1ncc([N+](=O)[O-])s1 has a reported T/C of 115 % of control

The compound listed as COc1cc(O)c2c(c1)C(=O)c1cc3c(c(O)c1C2=O)C(O)C(OC)C(C)(O)C3=O (configuration not stated) has a reported T/C of 95 % of control

The compound listed as CCCCNC1=CC(=S)NC(C)(C)C1 has a reported T/C of 86 % of control

The compound listed as Cc1ccc2c(c1)sc1nncn12 has a reported T/C of 105 % of control

The compound listed as FC(F)(F)c1ccccc1N=Cc1ccc(C=Nc2ccccc2C(F)(F)F)cc1 has a reported T/C of 91 % of control

The compound listed as Cc1ccc(S(=O)(=O)OC(C#N)c2ccccc2)cc1 (configuration not stated) has a reported T/C of 102 % of control

The compound listed as CN1NC(=O)c2ccccc2NC1=S has a reported T/C of 91 % of control

* * *

# System: P388 leukemia ip, CD2F1 mice, survival T/C
# METHOD: NCI In Vivo Anticancer Drug Screen. Data for tumor model P388 Leukemia (intraperitoneal) in CD2F1 (CDF1) mice
# ASSAY_CONTEXT: endpoint: median survival time; dose: 120.0 mg/kg/injection; schedule: Q01DX005 (ip); vehicle: saline with Tween-80; higher = longer survival
Toxic doses and inconclusive results are not listed.
For each entry below, report its T/C value.

The compound listed as COc1ccccc1C1=Nc2ccccc2N=C(c2ccccc2O)C1 has a reported T/C of 100 % of control

The compound listed as C[C](C)(C)[Ge]([O][Ge]([c]1ccccc1)[c]1ccccc1)([O][Ge]([c]1ccccc1)[c]1ccccc1)[C](C)(C)C has a reported T/C of 117 % of control

The compound listed as CCOC(=O)c1ccc(NC(=S)NC(=O)c2cccc(Br)c2)cc1 has a reported T/C of 95 % of control

The compound listed as C=C(C)CCP(=S)(OCC)OCC has a reported T/C of 101 % of control

The compound listed as CCn1c(=O)c(C#N)c2n(CC)c3cc(C)c(C)cc3n2c1=O has a reported T/C of 86 % of control

The compound listed as CCOC(=O)C(C)NC(=O)OCc1ccccc1 (configuration not stated) has a reported T/C of 112 % of control

The compound listed as Nc1nnc(-c2ccc(Nc3nc4ccccc4[nH]3)c([N+](=O)[O-])c2)s1 has a reported T/C of 101 % of control

The compound listed as CS1(C)=NC(=O)c2cc([N+](=O)[O-])ccc2N=1 has a reported T/C of 94 % of control

The compound listed as CCCSC(=O)Nc1ccc(Cc2ccc(NC(=O)SCCC)cc2)cc1 has a reported T/C of 87 % of control

The compound listed as COc1ccc2c(=O)c(Cc3c(-c4ccccc4)[nH]c4ccccc34)coc2c1 has a reported T/C of 91 % of control

The compound listed as Nc1cccc2[nH]c(=O)c3ccccc3c12 has a reported T/C of 105 % of control

The compound listed as CCNC(=O)c1c(C)nc(-c2ccccc2)nc1Nc1ccc(OCC)cc1 has a reported T/C of 98 % of control
